Values compiled from patent US20090311283A1.

target: HLA-A*3301 (human); experiment: competitive inhibition of 125I-labelled probe peptide binding to purified HLA; relative to standard peptide
Each entry below carries its recorded binding affinity ratio (IC50 of standard peptide / IC50 of test peptide).
OBSERVATION TYPE: binding affinity ratio (IC50 of standard peptide / IC50 of test peptide)

# BINDER, DATA VALUE
records = [
    ("KAGILYKR (modifications not checked) [HBV POL 153 peptide KAGILYKR]", -0.0009),
    ("LLAACFAR (modifications not checked) [HBV POL 719 peptide LLAACFAR]", 0.0029),
    ("LTVNEKRR (modifications not checked) [HBV POL 99 peptide LTVNEKRR]", -0.0009),
    ("ISCLTFGR (modifications not checked) [HBV NUC 105 peptide ISCLTFGR]", -0.0009),
    ("GMDIDPYK (modifications not checked) [HBV NUC 29 peptide GMDIDPYK]", -0.0009),
    ("NLEDPASR (modifications not checked) [HBV NUC 75 peptide NLEDPASR]", -0.0009),
    ("GIHLNPNKTK (modifications not checked) [HBV POL 567 peptide …]", 0.0009),
]
